System: human PBMC
experiment_notes: Induction of cytokines and chemokines from human PBMC, comparison with CpG polynucleotides (Milliplex MAP kit)
Assay type: cell-based
test_settings: human PBMC culture supernatant, 48 h; final concentration 10 μg/mL
recorded_endpoint: Cytokine, IL-6 (pg/mL)
Could you give me the number in pg/mL? Just the number is fine.

-- ask Given the entry GGGTGGUUU (DNA GGGTGGNNN; Three 3' uracils, sugar and linkages not given here, further chemistry not given here) [SEQ ID NO: 9, 5′-OH, 3′-OH non-DNA base-containing polynucleotide] , what Cytokine, IL-6 was observed with human PBMC?
-- reply 133

-- ask Likewise for GGGTGGNebNebNeb (DNA GGGTGGNNN; Three 3' nebularines, sugar and linkages not given here, further chemistry not given here) [SEQ ID NO: 5, 5′-OH, 3′-OH non-DNA base-containing polynucleotide] ?
-- reply 845

-- ask Repeat for the following substance: GGGTGGIII (DNA GGGTGGNNN; Three 3' inosines, sugar and linkages not given here, further chemistry not given here) [SEQ ID NO: 7, 5′-OH, 3′-OH non-DNA base-containing polynucleotide]
-- reply 1

----------
System: human PBMC
experiment_notes: Induction of cytokines and chemokines from human PBMC, comparison with CpG polynucleotides (Milliplex MAP kit)
Assay type: cell-based
test_settings: human PBMC culture supernatant, 48 h; final concentration 10 μg/mL
Strand notation (5' to 3'): a small letter for the sugar, then the base; units joined by * are phosphorothioate-linked, units joined directly phosphodiester-linked; [ ] holds rarer units or linkages, { } end groups; capitals alone tell only the bases. d = 2'-deoxy (DNA)
recorded_endpoint: Cytokine, IL-6 (pg/mL)
Please reply with the bare figure in pg/mL and do not write the unit itself.

-- ask What measured Cytokine, IL-6 goes with 5′-TCGTCGTTTTGTCGTTTTGTCGTT-3′ [SEQ ID NO: 34, reference compound] ?
-- reply 41

-- ask Try the substance UUGTUU [SEQ ID NO: 2]
-- reply 6

-- ask Also, NebGGTGNeb (DNA NGGTGN; Nebularine at both ends, sugar and linkages not given here, further chemistry not given here) [SEQ ID NO: 1, 5′-OH, 3′-OH non-DNA base-containing polynucleotide] please.
-- reply 26

-- ask Repeat with 5′-TCGTCGTTTTCGGCGGCCGCCG-3′ (DNA dT*dC*dG*dT*dC*dG*dT*dT*dT*dT*dC*dG*dG*dC*dG*dG*dC*dC*dG*dC*dC*dG) [SEQ ID NO: 35, reference compound]
-- reply 42

----------
Can you tell me Cytokine, IL-6 for the items I'm about to list?
System: human PBMC
experiment_notes: Induction of cytokines and chemokines from human PBMC, comparison with CpG polynucleotides (Milliplex MAP kit)
Format: cell-based
test_settings: human PBMC culture supernatant, 48 h; final concentration 10 μg/mL
Strand notation (5' to 3'): a small letter for the sugar, then the base; units joined by * are phosphorothioate-linked, units joined directly phosphodiester-linked; [ ] holds rarer units or linkages, { } end groups; capitals alone tell only the bases. d = 2'-deoxy (DNA)
Write it as a number; the unit pg/mL goes unstated.

-- ask Name the recorded Cytokine, IL-6 for 5′-GGGGACGACGTCGTCGGGGGG-3′ (DNA dG*dG*dG*dG*dA*dC*dG*dA*dC*dG*dT*dC*dG*dT*dC*dG*dG*dG*dG*dG*dG) [SEQ ID NO: 33, reference compound] .
-- reply 9

-- ask Here is the next substance: IIGTII [SEQ ID NO: 3]
-- reply 1

-- ask What would you report for 5′-TGCTGCTTTTTGCTGGCTTTTT-3′ (DNA dT*dG*dC*dT*dG*dC*dT*dT*dT*dT*dT*dG*dC*dT*dG*dG*dC*dT*dT*dT*dT*dT) [SEQ ID NO: 31, reference compound] ?
-- reply 43

----------
System: human PBMC
experiment_notes: Induction of cytokines from human PBMC (ELISA cytokine capture assay)
Type: cell-based
test_settings: PBMC of 3 healthy adults, 48 h; increase two-fold that of background control; SEQ ID NOs 1-3 100 μg/mL, CpG 2006 and MCC 1-100 μg/mL, LPS 10 μg/mL
recorded_endpoint: Number of individuals responding, IL-12p40

-- ask Name the recorded Number of individuals responding, IL-12p40 for UUGTUU [SEQ ID NO: 2] .
-- reply 3/3

-- ask Item: IIGTII [SEQ ID NO: 3]
-- reply 0/3

-- ask Next substance: NebGGTGNeb (DNA NGGTGN; Nebularine at both ends, sugar and linkages not given here, further chemistry not given here) [SEQ ID NO: 1, 5′-OH, 3′-OH non-DNA base-containing polynucleotide]
-- reply 3/3

-- ask Next entry: 5′-TCGTCGTTTTGTCGTTTTGTCGTT-3′ [SEQ ID NO: 32 CpG 2006, reference compound]
-- reply 1/3

The reported measurements were obtained from patent US20110111016A1.
